Attribution: patent US8901158B2

- tgt: human inositol monophosphatase (Homo sapiens)
- Sequence (P29218 1-277): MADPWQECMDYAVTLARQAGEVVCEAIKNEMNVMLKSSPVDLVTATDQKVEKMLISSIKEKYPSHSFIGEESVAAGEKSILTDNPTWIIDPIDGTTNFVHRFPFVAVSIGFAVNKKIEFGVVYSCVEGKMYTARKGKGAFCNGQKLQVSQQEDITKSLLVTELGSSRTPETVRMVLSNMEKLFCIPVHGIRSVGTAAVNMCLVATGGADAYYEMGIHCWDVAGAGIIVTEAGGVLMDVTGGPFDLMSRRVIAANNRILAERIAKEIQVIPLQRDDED
metricName: IC50 (nM)
Write the number in nM without appending the unit.

smilesStr	IC50 / nM
O=c1c2ccccc2sn1-c1ccccc1	35000

Would you kindly look at the next entry?
Per the records, this molecule ( CC(Oc1ccc(O)cc1)(P(=O)(O)O)P(=O)(O)O ) has IC50 equal to 1500
